test system: E. coli TESEC Mtb Alr; assay: growth (OD600 after 10 h); higher = more growth (less inhibition); conditions: arabinose 100 nM; compound 0.1 mM; raw OD600 reference: median of DMSO wells 0.413, cell-free background 0.052
Where a name gives a salt, the structure may show the parent alone.
The entries below are paired with their reported growth.
Number only, no unit.

Solved entries:
- MOLECULE: "COc1ccc(NS(=O)(=O)c2ccc(N)cc2)nn1 [Sulfamethoxypyridazine]"
  MEASURED PROPERTY: "growth"
  REPORTED VALUE: 0.408
- MOLECULE: "CC(=O)NS(=O)(=O)c1ccc(N)cc1 [Sulfacetamide sodic hydrate]"
  MEASURED PROPERTY: "growth"
  REPORTED VALUE: 0.406
- MOLECULE: "CC[N+](CC)(CC)CCOc1cccc(OCC[N+](CC)(CC)CC)c1OCC[N+](CC)(CC)CC [Gallamine triethiodide]"
  MEASURED PROPERTY: "growth"
  REPORTED VALUE: 0.42
- MOLECULE: "CCN(CC)CCOC(=O)C(c1ccccc1)c1ccccc1 [Adiphenine hydrochloride]"
  MEASURED PROPERTY: "growth"
  REPORTED VALUE: 0.414
- MOLECULE: "CC=CC(=O)N(CC)c1ccccc1C [Crotamiton]"
  MEASURED PROPERTY: "growth"
  REPORTED VALUE: 0.4
- MOLECULE: "COc1nc(C)nc(Cl)c1NC1=NCCN1 [Moxonidine]"
  MEASURED PROPERTY: "growth"
  REPORTED VALUE: 0.411
- MOLECULE: "CC1(C)O[C@@H]2C[C@H]3[C@@H]4CCC5=CC(=O)CC[C@]5(C)[C@@]4(F)[C@@H](O)C[C@]3(C)[C@]2(C(=O)CCl)O1 [Halcinonide]"
  MEASURED PROPERTY: "growth"
  REPORTED VALUE: 0.413
- MOLECULE: "N=C(N=C(N)N)N1CCOCC1 [Moroxidine hydrochloride]"
  MEASURED PROPERTY: "growth"
  REPORTED VALUE: 0.404

Now consider a different molecule.
Query: Consider the molecule shown here: O=c1oc2ccccc2c(O)c1Cc1c(O)c2ccccc2oc1=O [Dicumarol] What is its recorded growth?
Result: 0.128

* * *

Reported growth is given for each of the following molecules.
test system: E. coli TESEC Mtb Alr; assay: growth (OD600 after 10 h); higher = more growth (less inhibition); settings: arabinose 10000 nM; compound 0.1 mM; raw OD600 reference: median of DMSO wells 0.264, cell-free background 0.041
// no unit, no text: just the number

Here are 2 molecules together with their reported answers.
- SMILES DATA: "CCn1nc(C(=O)O)c(=O)c2cc3c(cc21)OCO3"
  TESTED ON: "E. coli TESEC Mtb Alr"
  growth: 0.0622
- SMILES DATA: "Cc1cc(-n2c(=O)[nH]c(=O)n(C)c2=O)ccc1Oc1ccc(SC(F)(F)F)cc1"
  TESTED ON: "E. coli TESEC Mtb Alr"
  growth: 0.0431

Query: Which value of growth has been reported for `CO[C@@H]1[C@@H](O[C@@H]2O[C@H](C)[C@@H](O[C@H]3C[C@@](C)(O)[C@@H](OC(=O)CC(C)C)[C@H](C)O3)[C@H](N(C)C)[C@H]2O)[C@@H](CC=O)C[C@@H](C)[C@@H](O)/C=C/C=C/C[C@@H](C)OC(=O)C[C@H]1OC(C)=O` in the records?
Result: 0.0406
